From: patent US20230072421A1

Target: PSMA-expressing LNCaP cells (Homo sapiens, UniProt Q04609)
Construct: PSMA-expressing LNCaP cells; endogenous in cells; host or cells: LNCaP
Sequence (Q04609 whole entry): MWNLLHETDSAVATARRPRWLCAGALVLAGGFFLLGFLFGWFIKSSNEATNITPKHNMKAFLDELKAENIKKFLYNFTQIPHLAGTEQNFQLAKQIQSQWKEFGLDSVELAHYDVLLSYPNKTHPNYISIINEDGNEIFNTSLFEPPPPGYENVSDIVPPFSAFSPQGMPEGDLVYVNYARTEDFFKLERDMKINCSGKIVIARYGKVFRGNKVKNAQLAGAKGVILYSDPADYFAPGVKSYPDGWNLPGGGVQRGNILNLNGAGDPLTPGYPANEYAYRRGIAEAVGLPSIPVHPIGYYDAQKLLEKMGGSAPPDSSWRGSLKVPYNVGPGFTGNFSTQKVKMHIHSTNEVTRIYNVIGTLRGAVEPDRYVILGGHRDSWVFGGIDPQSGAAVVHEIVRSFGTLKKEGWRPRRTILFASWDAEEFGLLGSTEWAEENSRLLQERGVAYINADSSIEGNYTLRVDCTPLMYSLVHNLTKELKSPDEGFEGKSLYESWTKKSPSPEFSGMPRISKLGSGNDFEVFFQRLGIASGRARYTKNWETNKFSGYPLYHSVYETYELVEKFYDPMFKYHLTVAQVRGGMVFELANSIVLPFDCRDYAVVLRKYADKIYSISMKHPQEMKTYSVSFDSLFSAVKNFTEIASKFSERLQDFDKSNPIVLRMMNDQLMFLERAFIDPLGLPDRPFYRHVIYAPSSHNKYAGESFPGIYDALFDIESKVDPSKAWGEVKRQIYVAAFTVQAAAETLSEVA
Test: Binding competition assay against 3H-PSMA-617 on LNCaP cells
Conditions: LNCaP cells; 10 nM 3H-PSMA-617; competing non-radiolabeled compound 100 nM; 2 h at 37° C.; triplicates
Method: Cells were incubated at 37° C. and 5% CO2 over night. […] After addition of the compounds in growth media the cells were swiveled slightly on a shaker mixing for 10 min followed by incubation for 2 h at 37° C., 5% C02. Following the incubation time the supernatant was removed by pipetting and cells were washed twice with ice cold PBS (total of 800 μl). […] Thereafter radioactivity was counted in a Tri-Carb Liquid Scinzillation Analyzer (Perkin Elmer).
// classify: if (remaining activity at 0.1 µM < 60%) Fulfilled else Not fulfilled

COMPOUND	CLASS_LABEL
NC[C@H]1CC[C@H](C(=O)N[C@@H](CCCNC(=O)c2cnccn2)C(=O)NCCCC[C@H](NC(=O)N[C@@H](CCC(=O)O)C(=O)O)C(=O)O)CC1 [Example 20-A]	Not fulfilled
NC[C@H]1CC[C@H](C(=O)N[C@@H](Cc2ccc3ccccc3n2)C(=O)NCCCC[C@H](NC(=O)N[C@@H](CCC(=O)O)C(=O)O)C(=O)O)CC1 [Example 17-A]	Fulfilled
NCc1cccc(C(=O)N[C@@H](Cc2ccc3ccccc3c2)C(=O)NCCCC[C@H](NC(=O)N[C@@H](CCC(=O)O)C(=O)O)C(=O)O)c1 [Example 27-A]	Fulfilled
NC[C@H]1CC[C@H](C(=O)N[C@@H](Cc2ccc(F)cc2)C(=O)NCCCC[C@H](NC(=O)N[C@@H](CCC(=O)O)C(=O)O)C(=O)O)CC1 [Example 7-A]	Not fulfilled
O=C(O)CC[C@H](NC(=O)N[C@@H](CCCCNC(=O)[C@@H](Cc1ccc2cccnc2c1)NC(=O)[C@H]1CC[C@H](CNC(=O)CN2CCN(CC(=O)O)CCN(CC(=O)O)CCN(CC(=O)O)CC2)CC1)C(=O)O)C(=O)O [Example 45-B]	Fulfilled

Request: Problem: For the compound NC[C@H]1CC[C@H](CNC(=O)N[C@@H](Cc2ccc3ccccc3c2)C(=O)NCCCC[C@H](NC(=O)N[C@@H](CCC(=O)O)C(=O)O)C(=O)O)CC1 [Example 29-A] , is remaining activity at 0.1 µM under 60%?
Response: Not fulfilled
